All values here come from patent US20260284212.

Kindly state Kd for each of the entries shown.
- Target: T1, human CD6 (human, UniProt P30203)
- T1 chain: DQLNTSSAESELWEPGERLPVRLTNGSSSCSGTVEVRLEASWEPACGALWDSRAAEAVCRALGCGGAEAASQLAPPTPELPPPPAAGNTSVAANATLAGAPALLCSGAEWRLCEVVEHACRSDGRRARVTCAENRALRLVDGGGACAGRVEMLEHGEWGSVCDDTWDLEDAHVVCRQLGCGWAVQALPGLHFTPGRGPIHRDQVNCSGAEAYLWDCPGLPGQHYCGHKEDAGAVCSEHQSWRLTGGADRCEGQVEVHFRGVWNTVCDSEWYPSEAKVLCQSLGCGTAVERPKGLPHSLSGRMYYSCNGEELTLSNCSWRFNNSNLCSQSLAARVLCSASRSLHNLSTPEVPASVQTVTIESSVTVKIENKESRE

A1CD601 VHH HuG1Fc (chimeric) (antibody, V domains shown) VH: QVQLQESGGGLVQAGGSLRLSCTASERTFSDYALGWFRQGPGKEREFVAAINWVGGSTYYADSVKGRFTISRDNAKNTLLLQMNSLKPEDTAVYFCVASWGAMPVLTHVINYWGKGTQVTVSS    0.21 nM

Need Kd for each of these binders.
1. CD601HH10 HuG1Fc (antibody, V domains shown) VH: QVQLQESGGGLVQPGGSLRLSCSASERTFSDYALGWFRQAPGKEREFVAAINWVGGSTYYADSVKGRFTISRDNSKNTLYLQMNSLRAEDTAVYYCVASWGAMPVLTHVINYWGKGTLVTVSS
2. CD601HH12 HuG1Fc (antibody, V domains shown) VH: QVQLVESGGGLVQPGGSLRLSCTASERTFSDYALGWFRQAPGKEREFVAAINWVGGSTYYADSVKGRFTISRDNSKNTLYLQMNSLRAEDTAVYYCVASWGAMPVLTHVINYWGKGTLVTVSS

Solution:
["0.247 nM", "0.222 nM"]

Provide reported Kd for each item, in the same order as listed.
1. CD601HH14 HuG1Fc (antibody, V domains shown) VH: QVQLVESGGGLVQPGGSLRLSCSASERTFSDYALGWFRQAPGKEREFVAAINWVGGSTYYADSVKGRFTISRDNAKNTLYLQMNSLRAEDTAVYYCVASWGAMPVLTHVINYWGKGTLVTVSS
2. CD601HH8 HuG1Fc (antibody, V domains shown) VH: QVQLVESGGGLVQPGGSLRLSCSASERTFSDYAMGWFRQAPGKEREFVAAINWVGGSTYYADSVKGRFTISRDNSKNTLYLQMNSLRAEDTAVYYCVASWGAMPVLTHVINYWGKGTLVTVSS

Solution:
1. 0.269 nM
2. 0.24 nM
